B1: library; numbered along this chain (parent)
chain: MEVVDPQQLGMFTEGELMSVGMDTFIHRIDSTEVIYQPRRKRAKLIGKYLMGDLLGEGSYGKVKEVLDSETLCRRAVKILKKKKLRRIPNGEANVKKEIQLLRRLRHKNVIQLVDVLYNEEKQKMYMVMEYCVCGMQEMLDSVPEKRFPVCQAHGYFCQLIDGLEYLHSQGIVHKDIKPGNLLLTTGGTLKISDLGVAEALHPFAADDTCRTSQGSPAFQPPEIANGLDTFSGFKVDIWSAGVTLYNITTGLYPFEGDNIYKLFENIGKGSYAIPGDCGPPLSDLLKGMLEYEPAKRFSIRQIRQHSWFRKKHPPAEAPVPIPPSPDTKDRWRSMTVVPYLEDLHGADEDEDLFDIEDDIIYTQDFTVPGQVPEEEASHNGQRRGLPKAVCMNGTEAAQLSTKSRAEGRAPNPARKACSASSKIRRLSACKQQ

# Variants of: B1
# ASSAY_METHOD_TEXT: STK11 functional score (HeLa growth suppression), rescaled enrichment; synonymous median = 1, nonsense median = 0 (normalised score)
# TEST_CONTEXT: with HeLa; variant type: missense
Rule: STK11 functional score under 1 gives NO, otherwise YES.

M139W : YES
A377Y : YES

Below: the item to evaluate.
### Prompt Does the variant C391V have recorded STK11 functional score that is 1 or more?
### Response NO
